Entry source: patent US20220249633A1

Target: HLA-A*24 (human)
Test: UV-exchange ELISA, exchange yield grade
Listed below: peptide exchange yield values for each entry.

// below: answered binders
Input: What does the record list as peptide exchange yield for LYSDAFKFIVF [… (SEQ ID NO: 207)] ?
Output: 50 to 75%

Input: Query NYSPGLVSLIL [… (SEQ ID NO: 281)] next
Output: 50 to 75%

Input: Similarly, IYGEKTYAF [… (SEQ ID NO: 388)] ?
Output: 50 to 75%

Next:
Input: For the binder IYNETVRDLL [… (SEQ ID NO: 106)] , what peptide exchange yield is on record?
Output: 50 to 75%

Input: Likewise for EYFTPLLSGQF [… (SEQ ID NO: 165)] ?
Output: 50 to 75%

Input: // next record YYSQESKVLYL [… (SEQ ID NO: 270)]
Output: 50 to 75%

Input: Please answer likewise for TYPDGTYTGRIF [… (SEQ ID NO: 191)]
Output: 50 to 75%

Input: Moving on to the next binder: DYLKDPVTI [… (SEQ ID NO: 284)]
Output: 50 to 75%

Input: Entry RFIGIPNQF [… (SEQ ID NO: 370)] please
Output: 50 to 75%
